// provenance: PubChem BioAssay AID2060327

# Tested on: PC-3 multi-cell spheroids, viability
# test_summary: Anticancer human tumor PC-3 cell line growth inhibition [IpAb]; active = viability on the fitted dose curve at most 10% of control; inactive = the rest;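 also: spheroids exposed to compounds for 7 days before readout; 100% = DMSO vehicle control wells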
# recorded_conditions: second compound 1 µM; first compound 0.949 µM
Would you mind answering with one of these outcomes? active, inactive

Study these solved cases before continuing.
compound: Cn1cnc2c(F)c(Nc3ccc(Br)cc3Cl)c(C(=O)NOCCO)cc21 + CCN1CCN(Cc2ccc(Nc3ncc(F)c(-c4cc(F)c5nc(C)n(C(C)C)c5c4)n3)nc2)CC1
category_label: inactive
--
compound: Cn1cnc2c(F)c(Nc3ccc(Br)cc3Cl)c(C(=O)NOCCO)cc21 + CC(C)NCC(C(=O)N1CCN(c2ncnc3c2C(C)CC3O)CC1)c1ccc(Cl)cc1
category_label: inactive
--
compound: CC(C)(C)c1cnc(CSc2cnc(NC(=O)C3CCNCC3)s2)o1 + CCN1CCN(Cc2ccc(Nc3ncc(F)c(-c4cc(F)c5nc(C)n(C(C)C)c5c4)n3)nc2)CC1
category_label: active

Now examine the next entry.
Please share the test call associated with CC(C)(C)c1cnc(CSc2cnc(NC(=O)C3CCNCC3)s2)o1 + CC(C)NCC(C(=O)N1CCN(c2ncnc3c2C(C)CC3O)CC1)c1ccc(Cl)cc1 .
active

---

Item-by-item account of viability, T/C
# Tested on: PC-3 multi-cell spheroids, viability
# test_summary: Anticancer human tumor PC-3 cell line growth inhibition [IpAb];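 also: spheroids exposed to compounds for 7 days before readout; 100% = DMSO vehicle control wells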
# recorded_conditions: second compound 0.1 µM; first compound 1 µM; stronger effect = lower value
Lab book: enter the figure in %, no units written.

Some solved cases for reference:
molecule: C=CCn1c(=O)c2cnc(Nc3ccc(N4CCN(C)CC4)cc3)nc2n1-c1cccc(C(C)(C)O)n1 + CC(C)NCC(C(=O)N1CCN(c2ncnc3c2C(C)CC3O)CC1)c1ccc(Cl)cc1
viability, T/C [%]: 20.5

molecule: Cc1nc(NC(=O)N2CCCC2C(N)=O)sc1-c1ccnc(C(C)(C)C(F)(F)F)c1 (stereo not given) + CC(C)NCC(C(=O)N1CCN(c2ncnc3c2C(C)CC3O)CC1)c1ccc(Cl)cc1
viability, T/C [%]: 49.5

molecule: COc1c(OCCCN2CCOCC2)ccc2c3n(c(=NC(=O)c4cnc(N)nc4)nc12)CCN3 + CCN1CCN(Cc2ccc(Nc3ncc(F)c(-c4cc(F)c5nc(C)n(C(C)C)c5c4)n3)nc2)CC1
viability, T/C [%]: 9.54

molecule: C=CC(=O)N1CCN(c2nc(=O)n(-c3c(C)ccnc3C(C)C)c3nc(-c4c(O)cccc4F)c(F)cc23)C(C)C1 (stereo not given) + CCN1CCN(Cc2ccc(Nc3ncc(F)c(-c4cc(F)c5nc(C)n(C(C)C)c5c4)n3)nc2)CC1
viability, T/C [%]: 54.7

molecule: Cn1nccc1Nc1nccc(-c2ccn(C(CO)c3ccc(Cl)c(F)c3)c(=O)c2)n1 (stereo not given) + CC(C)NCC(C(=O)N1CCN(c2ncnc3c2C(C)CC3O)CC1)c1ccc(Cl)cc1
viability, T/C [%]: 105

molecule: Cn1ncc(Cl)c1-c1cc(C(=O)NC(CN)Cc2cccc(F)c2)sc1Cl (stereo not given) + CC(C)NCC(C(=O)N1CCN(c2ncnc3c2C(C)CC3O)CC1)c1ccc(Cl)cc1
viability, T/C [%]: 19.8

molecule: C=CC(=O)N1CCN(c2nc(=O)n(-c3c(C)ccnc3C(C)C)c3nc(-c4c(O)cccc4F)c(F)cc23)C(C)C1 (stereo not given) + CC(C)NCC(C(=O)N1CCN(c2ncnc3c2C(C)CC3O)CC1)c1ccc(Cl)cc1
viability, T/C [%]: 83.6

molecule: CC1(C)CCC(CN2CCN(c3ccc(C(=O)NS(=O)(=O)c4ccc(NCC5CCOCC5)c([N+](=O)[O-])c4)c(Oc4cnc5[nH]ccc5c4)c3)CC2)=C(c2ccc(Cl)cc2)C1 + CCN1CCN(Cc2ccc(Nc3ncc(F)c(-c4cc(F)c5nc(C)n(C(C)C)c5c4)n3)nc2)CC1
viability, T/C [%]: 64.2

molecule: CC1(C)CCC(CN2CCN(c3ccc(C(=O)NS(=O)(=O)c4ccc(NCC5CCOCC5)c([N+](=O)[O-])c4)c(Oc4cnc5[nH]ccc5c4)c3)CC2)=C(c2ccc(Cl)cc2)C1 + CC(C)NCC(C(=O)N1CCN(c2ncnc3c2C(C)CC3O)CC1)c1ccc(Cl)cc1
viability, T/C [%]: 63.2

Attention now turns to another entry.
# query: viability, T/C of entry Cn1nccc1Nc1nccc(-c2ccn(C(CO)c3ccc(Cl)c(F)c3)c(=O)c2)n1 (stereo not given) + CCN1CCN(Cc2ccc(Nc3ncc(F)c(-c4cc(F)c5nc(C)n(C(C)C)c5c4)n3)nc2)CC1
64.8
